Origin of values: PubChem BioAssay (Tox21)

# protocolDescription: qHTS assay to identify small molecule agonists of the estrogen receptor beta (ER-beta) signaling pathway - cell viability counter screen (AID 1259380); further: nearly all actives have a fitted effect of over 30% in size
# appliedConditions: ER-beta-bla HEK293T viability, CellTiter-Glo luminescence, 16 h; series mostly up to 92.4 µM
Inconclusive results are not listed. Active and inactive are the calls of the source. The call rests on the fitted dose curve; in most records, active means well fitted cell-killing curve with a large enough effect in the repeat runs; inconclusive means weak or mixed curves, or effect the other way; inactive means flat fitted curve, though single readings scatter.
Possible outcomes: True (active), False (inactive)

compound	categoryLabel
COc1cccc(C(=O)CCN[C@@H](C)[C@H](O)c2ccccc2)c1	False
S=C(SSC(=S)N1CCCCC1)N1CCCCC1	True
c1ccc2cc3c(cc2c1)-c1cccc2cccc-3c12	False
N#Cc1c(-c2ccc(Cl)cc2)[nH]c(C(F)(F)F)c1Br	True
O=C1c2ccccc2C(=O)C1C(=O)C(c1ccccc1)c1ccc(Cl)cc1 (stereo unspecified)	True
O=[N+]([O-])c1cc(C(F)(F)F)c(Cl)c([N+](=O)[O-])c1Cl	True
Cc1cc(Cl)ccc1O[C@H](C)C(=O)O	False
CC1(C)C(/C=C(\Cl)C(F)(F)F)C1C(=O)OC(C#N)c1cccc(Oc2ccccc2)c1 (stereo unspecified)	False
C[C@]12CC[C@@H]3c4ccc(OC(=O)N(CCCl)CCCl)cc4CC[C@H]3[C@@H]1CC[C@@H]2O	False
COP(=O)(CCC(=O)NCO)OC	False
CC[C@H]1C[C@@H]2C[C@H]3c4[nH]c5ccc(OC)cc5c4CCN(C2)[C@@H]13	False
O=c1oc2ccccc2c(O)c1Cc1c(O)c2ccccc2oc1=O	True
N#CNC#N	False
C=CCOC(N)=O	False
Oc1ccc(I)cc1	False
CCOP(=S)(OCC)SCCS(=O)(=O)CC	False
CC(C)OS(C)(=O)=O	False
CC(C)CBr	False
Oc1ccc(C2(c3ccc(O)cc3)c3ccccc3-c3ccccc32)cc1	True
CCS(=O)(=O)c1cccnc1S(=O)(=O)NC(=O)Nc1nc(OC)cc(OC)n1	False
CNC(C)Cc1ccc2c(c1)OCO2 (stereo unspecified)	False
CC(O)C#N (stereo unspecified)	False
c1ccc(OCC2CO2)cc1 (stereo unspecified)	False
ClCc1ccccc1CCl	False
Clc1ccc(-c2ccc(Cl)c(Cl)c2Cl)c(Cl)c1Cl	True
CC[C@H](C)[C@H]1O[C@]2(C=C[C@@H]1C)C[C@@H]1C[C@@H](C/C=C(\C)[C@@H](O[C@H]3C[C@H](OC)[C@@H](O[C@H]4C[C@H](OC)[C@@H](O)[C@H](C)O4)[C@H](C)O3)[C@@H](C)/C=C/C=C3\CO[C@@H]4[C@H](O)C(C)=C[C@@H](C(=O)O1)[C@]34O)O2	True
CC(C)CC(C)N (stereo unspecified)	False
CC(Cc1ccc(C(C)(C)C)cc1)CN1C[C@@H](C)O[C@@H](C)C1 (stereo partly specified)	False
COc1ccc(OC)c(CC(C)N)c1 (stereo unspecified)	False
CCc1nn(C)c(C(=O)NCc2ccc(C(C)(C)C)cc2)c1Cl	True
CC(=O)C(Cl)(Cl)Cl	False
O=c1[nH]c2ccccc2n1CCCN1CCC(n2c(=O)[nH]c3cc(Cl)ccc32)CC1	True
CC(=[OH+])/C=C(/C)[O-].CC(=[OH+])/C=C(\C)[O-].CC(=[OH+])/C=C(\C)[O-].[Fe]	False
COC(=O)N(C(=O)N1CO[C@@]2(C(=O)OC)Cc3cc(Cl)ccc3C2=N1)c1ccc(OC(F)(F)F)cc1	False
COc1ccc(/C(=C/C(=O)N2CCOCC2)c2ccc(Cl)cc2)cc1OC	True
CCCCCCCCCBr	False
